System: 996289-038-R-J1-PDC complex spheroid viability;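 further: spheroids exposed to the agents for 7 days before readout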
Test: Anticancer human tumor 996289-038-R-J1-PDC patient-derived colon adenocarcinoma cell line growth inhibition [CLK]
Details: second compound 0.316 µM; first compound 0.316 µM; stronger effect = lower value
quantity: viability, T/C (%)
Report as a plain number; the unit % is understood.

Check out these entries, answers already filled in.
>  <compound>
COc1cccc2c1C(=O)c1c(O)c3c(c(O)c1C2=O)CC(O)(C(=O)CO)CC3OC1CC(N)C(O)C(C)O1 (centres undefined) + CNC(=O)c1ccc(Nc2nc(OC3CCCC3)c3c(-c4ccc5nc(C)oc5c4)c[nH]c3n2)c(OC)c1

>  <viability, T/C / %>
63.1

$$$$
>  <compound>
CC(Nc1ccc2c(c1)OCCn1cc(N3C(=O)OCC3C(F)F)nc1-2)C(N)=O (centres undefined) + CNC(=O)c1ccc(Nc2nc(OC3CCCC3)c3c(-c4ccc5nc(C)oc5c4)c[nH]c3n2)c(OC)c1

>  <viability, T/C / %>
53

$$$$
>  <compound>
CC1COCCN1c1cc(C2(S(C)(=N)=O)CC2)nc(-c2ccnc3[nH]ccc23)n1 (centres undefined) + CNC(=O)c1ccc(Nc2nc(OC3CCCC3)c3c(-c4ccc5nc(C)oc5c4)c[nH]c3n2)c(OC)c1

>  <viability, T/C / %>
79.4

$$$$

Item: C#Cc1c(F)ccc2cc(O)cc(-c3ncc4c(N5CC6CCC(C5)N6)nc(OCC56CCCN5CC(F)C6)nc4c3F)c12 (centres undefined) + CN1CCN(c2cc(C(=O)Nc3cc4cc(-c5cnn(C)c5)ccc4cn3)ccn2)CC1 | viability, T/C: 35.9
